- Target under test: VEGFR-2 (Homo sapiens)
- Assay explanation: VEGFR-2 inhibition rate test (kinase assay kit, colorimetric ELISA)
- Measurement context: concentration not given
Readout label: Kinase inhibition rate (VEGFR-2)

- Compound: "COc1cc2c(Nc3ccc(F)c(Cl)c3)nnnc2cc1OCCCCl"
  Kinase inhibition rate (VEGFR-2): "−14.70"
- Compound: "Fc1cc(F)cc(Nc2nnnc3ccccc23)c1"
  Kinase inhibition rate (VEGFR-2): "−5.34"

1 = CCCCCOc1cc2nnnc(Nc3ccccc3)c2cc1OC
2 = FC(F)(F)Oc1ccc(Nc2nnnc3ccccc23)cc1
3 = CCCCOc1cc2nnnc(Nc3ccc(F)cc3)c2cc1OC
4 = COc1cc2c(Nc3cccc(OC(F)(F)F)c3)nnnc2cc1OCCCCl
Prompt: Please put the entries in order of rising Kinase inhibition rate (VEGFR-2). Reply: labels, ordered per the request.
Response: 2, 1, 4, 3

1 = Fc1ccc(Nc2nnnc3ccccc23)cc1
2 = COc1cc2c(Nc3ccc(F)cc3)nnnc2cc1OCCCCl
Prompt: Look at 1 and 2 . Which one has the lower recorded Kinase inhibition rate (VEGFR-2) number? Identify your selection by its label.
Response: 1
(1: −22.99, 2: 9.35)

P = CCCCCOc1cc2nnnc(Nc3ccc(Cl)c(Cl)c3)c2cc1OC
Q = CCCCCOc1cc2nnnc(Nc3cccc(OC(F)(F)F)c3)c2cc1OC [Example 53]
R = COc1cc2c(Nc3cccc(Cl)c3)nnnc2cc1OCCCCl
S = CCCCOc1cc2nnnc(Nc3ccc(Cl)cc3)c2cc1OC
T = COc1cc2c(Nc3ccccc3)nnnc2cc1OCCCCl
Prompt: List the 5 entries from lowest Kinase inhibition rate (VEGFR-2) to highest Kinase inhibition rate (VEGFR-2) value. Reply format: the labels, ordered as requested.
Response: P, S, T, Q, R

A = COc1cc2c(Nc3cccc(Br)c3)nnnc2cc1OCCCCl
B = Fc1cc(F)cc(Nc2nnnc3ccc(Cl)nc23)c1
C = CCCCCOc1cc2nnnc(Nc3cc(Cl)cc(Cl)c3)c2cc1OC
D = COc1cc2c(Nc3cccc(C(F)(F)F)c3)nnnc2cc1OCCCCl
E = COc1cc2c(Nc3ccc(Cl)cc3)nnnc2cc1OCCCCl
Prompt: Order the 5 compounds from highest to lowest Kinase inhibition rate (VEGFR-2). Put the labels in the requested order and list them out.
Response: A, D, C, B, E
(A: 0.80, D: 0.26, C: −0.53, B: −6.44, E: −10.15)

* * *

- Target under test: VEGFR-2 (Homo sapiens, UniProt P35968)
- Sequence (P35968 20-1356): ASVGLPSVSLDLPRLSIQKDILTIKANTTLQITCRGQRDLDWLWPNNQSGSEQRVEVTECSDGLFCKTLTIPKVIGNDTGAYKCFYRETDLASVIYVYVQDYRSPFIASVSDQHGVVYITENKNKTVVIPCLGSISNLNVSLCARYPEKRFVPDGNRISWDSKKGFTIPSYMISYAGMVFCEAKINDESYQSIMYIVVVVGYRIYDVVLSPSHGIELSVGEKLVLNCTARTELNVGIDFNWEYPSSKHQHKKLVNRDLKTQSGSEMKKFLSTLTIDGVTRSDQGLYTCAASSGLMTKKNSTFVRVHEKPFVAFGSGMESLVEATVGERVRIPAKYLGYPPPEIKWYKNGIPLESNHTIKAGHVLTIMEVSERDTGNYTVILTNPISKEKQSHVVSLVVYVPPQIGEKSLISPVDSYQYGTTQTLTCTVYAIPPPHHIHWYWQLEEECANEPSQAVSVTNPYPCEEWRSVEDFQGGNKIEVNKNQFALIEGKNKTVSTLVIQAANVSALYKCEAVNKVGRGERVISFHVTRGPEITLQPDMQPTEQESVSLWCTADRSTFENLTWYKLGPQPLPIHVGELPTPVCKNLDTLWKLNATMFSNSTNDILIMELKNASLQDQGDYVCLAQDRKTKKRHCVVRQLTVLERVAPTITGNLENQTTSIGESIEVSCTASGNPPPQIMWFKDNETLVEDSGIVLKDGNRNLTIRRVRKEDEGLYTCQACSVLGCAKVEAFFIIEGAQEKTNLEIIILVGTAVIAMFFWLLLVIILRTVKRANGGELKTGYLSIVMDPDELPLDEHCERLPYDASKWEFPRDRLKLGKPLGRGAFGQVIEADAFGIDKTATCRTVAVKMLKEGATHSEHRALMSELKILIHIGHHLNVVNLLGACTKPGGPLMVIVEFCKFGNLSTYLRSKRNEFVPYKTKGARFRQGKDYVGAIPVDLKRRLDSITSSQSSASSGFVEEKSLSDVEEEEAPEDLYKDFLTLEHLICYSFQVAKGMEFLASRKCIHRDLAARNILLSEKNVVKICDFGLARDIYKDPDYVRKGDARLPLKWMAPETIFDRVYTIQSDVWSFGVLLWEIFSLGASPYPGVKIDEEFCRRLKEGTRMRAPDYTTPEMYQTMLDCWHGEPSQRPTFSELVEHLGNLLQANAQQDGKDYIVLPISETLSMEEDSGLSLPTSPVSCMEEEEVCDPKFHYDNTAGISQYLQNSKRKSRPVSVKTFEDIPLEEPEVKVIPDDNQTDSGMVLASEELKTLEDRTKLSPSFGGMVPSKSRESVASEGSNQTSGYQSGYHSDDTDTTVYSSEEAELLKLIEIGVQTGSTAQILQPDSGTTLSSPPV
- Assay explanation: VEGFR-2 inhibition rate test (kinase assay kit, colorimetric ELISA)
- Measurement context: concentration not given
Readout label: Kinase inhibition rate (VEGFR-2)

a = CCCCCOc1cc2nnnc(Nc3ccc(C(F)(F)F)cc3)c2cc1OC
b = CCCCCOc1cc2nnnc(Nc3ccc(F)c(Cl)c3)c2cc1OC
Prompt: Among a and b , which shows a numerically higher Kinase inhibition rate (VEGFR-2) result? Write down the label of the entry you select.
Response: b

I = CCCCOc1cc2nnnc(Nc3ccc(F)c(Cl)c3)c2cc1OC
II = CCCCOc1cc2nnnc(Nc3cccc(Br)c3)c2cc1OC
III = Fc1ccccc1Nc1nnnc2ccccc12
IV = CCCCOc1cc2nnnc(Nc3cc(Cl)cc(Cl)c3)c2cc1OC
V = CCCCOc1cc2nnnc(Nc3cccc(Cl)c3)c2cc1OC
Prompt: # rank_down: sort by Kinase inhibition rate (VEGFR-2), max first When ranking, write the labels in the order the request describes.
Response: III, II, V, I, IV
(III: 19.78, II: 5.61, V: 2.40, I: 0.80, IV: −9.89)

1 = Clc1ccc2nnnc(Nc3ccccc3)c2n1
2 = CCCCOc1cc2nnnc(Nc3ccc(Br)c(F)c3)c2cc1OC
Prompt: // max by Kinase inhibition rate (VEGFR-2) over [ 1 , 2 ] Answer by stating the label of the chosen item.
Response: 1

a = Fc1ccc(Nc2nnnc3ccc(Cl)nc23)cc1
b = COc1cc2c(Nc3ccccc3F)nnnc2cc1OCCCCl
Prompt: Of a and b , which carries the smaller reported Kinase inhibition rate (VEGFR-2) figure? Which one? Tell me its label.
Response: b
(b: 0.26, a: 5.27)
